# ASSAY TARGET: MAP3K9 (human) (UniProt P80192)
# Sequence (P80192 whole entry, looked up): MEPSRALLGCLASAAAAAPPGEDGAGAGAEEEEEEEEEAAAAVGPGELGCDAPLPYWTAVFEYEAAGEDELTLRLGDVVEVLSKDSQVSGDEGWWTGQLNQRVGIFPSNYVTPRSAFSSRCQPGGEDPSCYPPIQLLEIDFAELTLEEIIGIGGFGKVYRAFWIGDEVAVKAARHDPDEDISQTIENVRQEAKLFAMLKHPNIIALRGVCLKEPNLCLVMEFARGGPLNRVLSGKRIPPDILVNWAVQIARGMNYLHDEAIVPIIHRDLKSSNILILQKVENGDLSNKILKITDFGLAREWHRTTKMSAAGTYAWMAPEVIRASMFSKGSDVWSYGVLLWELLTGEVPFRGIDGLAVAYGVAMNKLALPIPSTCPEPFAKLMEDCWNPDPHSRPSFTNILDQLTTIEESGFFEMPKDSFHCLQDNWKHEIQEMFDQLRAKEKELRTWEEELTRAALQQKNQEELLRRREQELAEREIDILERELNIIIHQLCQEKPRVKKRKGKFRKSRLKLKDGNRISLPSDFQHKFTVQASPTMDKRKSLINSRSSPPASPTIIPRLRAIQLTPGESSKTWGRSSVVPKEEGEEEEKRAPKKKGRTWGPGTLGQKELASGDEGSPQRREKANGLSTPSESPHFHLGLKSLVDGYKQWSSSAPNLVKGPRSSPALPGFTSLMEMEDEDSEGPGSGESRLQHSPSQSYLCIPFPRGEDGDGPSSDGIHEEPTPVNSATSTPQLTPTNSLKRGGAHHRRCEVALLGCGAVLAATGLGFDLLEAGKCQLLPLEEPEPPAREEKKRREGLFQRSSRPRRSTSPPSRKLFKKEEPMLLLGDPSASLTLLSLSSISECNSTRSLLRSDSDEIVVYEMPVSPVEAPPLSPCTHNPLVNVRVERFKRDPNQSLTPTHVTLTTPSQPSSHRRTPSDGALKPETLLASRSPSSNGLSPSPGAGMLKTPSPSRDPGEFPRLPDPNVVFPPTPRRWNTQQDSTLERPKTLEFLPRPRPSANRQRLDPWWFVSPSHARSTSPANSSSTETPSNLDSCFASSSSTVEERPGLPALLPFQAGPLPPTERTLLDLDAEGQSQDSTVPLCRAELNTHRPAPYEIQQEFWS
# RUN DESCRIPTION: radiometric filter-binding kinase assay
# MEASUREMENT SETUP: compound 1.0 µM
OBSERVATION TYPE: residual activity (%)
Answer with a number only, understood to be in %.

So what does the record say about residual activity for "NCC(=O)Nc1ccc(-n2nc(C(F)(F)F)cc2-c2ccc3c(ccc4ccccc43)c2)cc1" ?
99

Another: CNC(=O)C1[C@H]2O[C@@](C)([C@@H]1N)n1c3ccccc3c3c4c(c5c6ccccc6n2c5c31)C(=O)NC4 (stereo not given in full)
2

Same thing, different molecule: "O=C(Nc1cccnc1)c1cc(-c2ccnc(F)c2)ccc1OCc1ccccc1"
69

Now give it for "FC(F)(F)c1ccc(-c2ccc(Oc3cncc4sc(-c5nn[nH]n5)cc34)cc2)cc1" too.
126

Queued: CC1=C(CO)C(=O)O[C@@H]([C@@H](C)[C@H]2CC[C@H]3[C@@H]4C[C@H]5O[C@]56[C@@H](O)C=CC(=O)[C@]6(C)C4CC[C@]23C)C1 (stereo not given in full)
100

Also "NC(=O)c1cc2c(-c3cccc(-c4ccccc4)c3)cnc(N)c2s1" , if possible.
18

Repeat with "N#Cc1c(C2CCNCC2)cc(-c2c(O)cccc2OCC2CC2)nc1N"
73

Item: "CN(C)C/C=C/C(=O)Nc1cccc(C(=O)Nc2ccc(Nc3nccc(-c4cccnc4)n3)cc2)c1"
39

What about "O=C(Nc1ccccc1-c1cn2c(CN3CCNCC3)csc2n1)c1cnc2ccccc2n1" ?
92

// next record "Cc1nc(-c2ccc(OCC(C)C)c(C#N)c2)sc1C(=O)O"
69

Follow-up item: Nc1cccc2c1CN(C1CCC(=O)NC1=O)C2=O (stereo not given)
99

Subsequent entry: "C=CC(=O)N1CCC[C@@H](n2nc(-c3ccc(Oc4ccccc4)cc3)c3c(N)ncnc32)C1"
89

Same lookup for "CC(C)(C#N)c1ccc(N2C(=O)OCc3cnc4ccc(-c5cnc6ccccc6c5)cc4c32)cc1" , please.
91

Same question, "O=C(NOC[C@H](O)CO)c1ccc(F)c(F)c1Nc1ccc(I)cc1Cl" this time
95

Can you handle COc1cc(O)c2c(c1)[C@H]1OC1C[C@H](O)[C@H](O)C(=O)/C=C\C[C@H](C)OC2=O (stereo not given in full) next?
101

Same question, "COc1ccc(-n2ncc3cnc(Nc4cc(OC)c(OC)c(OCCCN5CCN(C)CC5)c4)nc32)cc1" this time
6

Consider next the molecule C=C1C(=O)OC2C1CC/C(C)=C/CCC1(C)OC21 (stereo not given) in the same way.
117

Try this molecule too: "c1ccc2c(-c3cnn4cc(-c5ccc(N6CCNCC6)cc5)cnc34)ccnc2c1"
70

And for "COc1cc(C(=O)N2CCOCC2)c(F)cc1Nc1ncc(C(F)(F)F)c(NC2CC2)n1" ?
39

Next record, please: "Cc1ccc(-c2ccc3c(ccc4sc5c(c43)NC[C@@H](C)NC5=O)n2)cn1"
95
